Test: cell survival after pyrene fatty acid photosensitization – ZR-82 cells, Analyticon library, screen 2, phospholipid biosynthesis inhibitor project, primary screen (AID 1347383);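 further: survival reflects blocked phospholipid synthesis cutting uptake of the phototoxic fatty acid; compound and fatty acid exposure 3 h then viability read next day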
Details: ZR-82 CHO cells, pyrene-fatty acid UV killing, CellTiter Blue; at 10 µM; peroxisome-deficient CHO-K1 variant; with DGAT-1, DGAT-2 and ACAT inhibitors
Calls of active or inactive are those of the source.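 How the source made its calls: active means cell survival after UV exposure 2 SD above solvent-only control wells at 10 µM, confirmed on one or two repeats; inactive means the rest.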

[
  {
    "Compound": "C=CCc1ccc(O)c(O)c1",
    "outcome": "inactive"
  },
  {
    "Compound": "C[C@@H]1CCC2C(C)(C)[C@H](O)CC[C@]2(C)[C@@]12Cc1c(O)cc3c(c1O2)CNC3=O (stereo not given in full)",
    "outcome": "inactive"
  },
  {
    "Compound": "CNC(=O)Oc1ccc2c(c1)[C@]1(C)CCN(C)[C@@H]1N2C",
    "outcome": "inactive"
  },
  {
    "Compound": "CC(C)=CCC/C(C)=C/CC(O)/C(C)=C/Cc1cc(C(=O)O)ccc1O (stereo not given)",
    "outcome": "inactive"
  },
  {
    "Compound": "Cn1c2c(O)c(O)ccc2c(=O)c2c(O)cc3c(c21)C=CC(C)(C)O3",
    "outcome": "inactive"
  }
]

---

Experiment: cell survival after pyrene fatty acid photosensitization – ZR-82 cells, Analyticon library, screen 2, phospholipid biosynthesis inhibitor project, primary screen (AID 1347383);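 further: survival reflects blocked phospholipid synthesis cutting uptake of the phototoxic fatty acid; compound and fatty acid exposure 3 h then viability read next day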
Details: ZR-82 CHO cells, pyrene-fatty acid UV killing, CellTiter Blue; at 10 µM; peroxisome-deficient CHO-K1 variant; with DGAT-1, DGAT-2 and ACAT inhibitors
The source made the active and inactive calls.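 Rule for the calls: active = cell survival after UV exposure 2 SD above solvent-only control wells at 10 µM, confirmed on one or two repeats; inactive = the rest.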
Outcome codes: YES for active, NO for inactive

[
  {
    "Compound": "OC[C@H]1O[C@@H](Oc2ccccc2)[C@H](O)[C@@H](O)[C@@H]1O",
    "Cat": "NO"
  },
  {
    "Compound": "COc1cc(O)cc2occ(-c3ccc(O)cc3)c(=O)c12",
    "Cat": "NO"
  },
  {
    "Compound": "CC1OC(n2cnc3c(N)ncnc32)C(O)C1O (stereo unspecified)",
    "Cat": "NO"
  },
  {
    "Compound": "C=CC(=C)CCC1(C)C(C)CC(O)C23C(=CC(OC(C)=O)CC12)C(OC)OC3OC(C)=O (stereo unspecified)",
    "Cat": "NO"
  },
  {
    "Compound": "COc1cc(CCc2ccccc2)cc(O)c1C/C=C(\\C)CCC=C(C)C",
    "Cat": "NO"
  },
  {
    "Compound": "Nc1ccccc1CCCCCCC(=O)O",
    "Cat": "NO"
  },
  {
    "Compound": "CC(C)(O)/C=C/C1=CC(O)C(C)(O)CC1O (stereo unspecified)",
    "Cat": "NO"
  },
  {
    "Compound": "CC(=O)c1ccc(O[C@@H]2O[C@H](CO)[C@@H](O)[C@H](O)[C@H]2O)cc1",
    "Cat": "NO"
  },
  {
    "Compound": "O=C1c2c(O)cc(O)cc2OC(c2cc(O)c(O)c(O)c2)C1O (stereo unspecified)",
    "Cat": "NO"
  },
  {
    "Compound": "C=C1C[C@]23C[C@H]1CC[C@H]2[C@]1(C)CCC[C@@]2(COC(C)=O)C(=O)O[C@H]([C@H]21)[C@@H]3OC(C)=O",
    "Cat": "YES"
  },
  {
    "Compound": "COc1ccc(CCc2cc(OC)cc(=O)o2)cc1",
    "Cat": "NO"
  }
]

---

Assay: cell survival after pyrene fatty acid photosensitization – ZR-82 cells, Analyticon library, screen 2, phospholipid biosynthesis inhibitor project, primary screen (AID 1347383);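 further: survival reflects blocked phospholipid synthesis cutting uptake of the phototoxic fatty acid; compound and fatty acid exposure 3 h then viability read next day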
Details: ZR-82 CHO cells, pyrene-fatty acid UV killing, CellTiter Blue; at 10 µM; peroxisome-deficient CHO-K1 variant; with DGAT-1, DGAT-2 and ACAT inhibitors
Active and inactive are the calls of the source.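 The calls were made as follows: active = cell survival after UV exposure 2 SD above solvent-only control wells at 10 µM, confirmed on one or two repeats; inactive = the rest.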

[
  {
    "Molecule": "Cc1cc(O)c2c3c(c(O)c4c(c13)OC(C)C4(C)C)C(=O)O2 (stereo not drawn)",
    "outcome": "inactive"
  },
  {
    "Molecule": "CCC(C)C(=O)OC1CC(C)C=C2C=CC(C)C(CCC(O)CC(O)CC(=O)O)C21 (stereo not drawn)",
    "outcome": "inactive"
  },
  {
    "Molecule": "CC1(C)O[C@]23C[C@H]1C[C@H](OC(=O)c1ccoc1)[C@]2(C)[C@@H](OC(=O)c1ccoc1)CCC3(C)O (stereo partly drawn)",
    "outcome": "inactive"
  },
  {
    "Molecule": "CC(=O)CCCCCCc1ccc2c(c1)OCO2",
    "outcome": "inactive"
  },
  {
    "Molecule": "COc1c(O)ccc2c1C(=O)c1ccccc1C2=O",
    "outcome": "inactive"
  },
  {
    "Molecule": "CCC(C)(O)C(O)C(=O)OCC1CC[N+]2([O-])CCCC12 (stereo not drawn)",
    "outcome": "inactive"
  },
  {
    "Molecule": "COc1ccc(/C=C/C(=O)O)cc1O",
    "outcome": "inactive"
  },
  {
    "Molecule": "CO[C@@H]1[C@H](O)CC[C@]2(CO2)[C@H]1[C@@]1(C)O[C@@H]1CC=C(C)C",
    "outcome": "inactive"
  },
  {
    "Molecule": "CCC(C)C1NC(=O)C2CCCN2C1=O (stereo not drawn)",
    "outcome": "inactive"
  },
  {
    "Molecule": "C=C1C(=O)O[C@@H]2/C=C(\\C)CC/C=C(\\C(=O)O)C[C@@H](OC(=O)/C(C)=C/C)C12 (stereo partly drawn)",
    "outcome": "inactive"
  },
  {
    "Molecule": "C=C(Oc1cccc(C(=O)O)c1)C(=O)O",
    "outcome": "inactive"
  },
  {
    "Molecule": "O=C(Cc1ccccc1)O[C@@H]1[C@@H](O)[C@H](O)[C@@H](CO)O[C@H]1O",
    "outcome": "inactive"
  },
  {
    "Molecule": "CC(O)C(O)c1ccc(OC(C)C(O)c2ccc(O)cc2)cc1 (stereo not drawn)",
    "outcome": "inactive"
  },
  {
    "Molecule": "C=C1CCC2[C@@](C)(CO)CCC[C@]2(C)[C@H]1CC/C(C)=C/CO (stereo partly drawn)",
    "outcome": "inactive"
  },
  {
    "Molecule": "C[C@H](O)c1nc2ccccc2c(=O)[nH]1",
    "outcome": "inactive"
  },
  {
    "Molecule": "O=C(/C=C/c1ccc(O)cc1)c1ccc(O)cc1O",
    "outcome": "inactive"
  },
  {
    "Molecule": "CCC(C)CC(C)/C=C/CCC(O)C(Cc1ccc(O)cc1)NC (stereo not drawn)",
    "outcome": "inactive"
  },
  {
    "Molecule": "CC(C(=O)CCCCC(O)C(C)O)C(=O)N1C=CCC1 (stereo not drawn)",
    "outcome": "inactive"
  },
  {
    "Molecule": "CC(=O)OC(C)C(C)(O)C(=O)O[C@@H]1CC[C@]2(C)CC(=O)C(=C(C)C)C[C@H]2[C@]1(C)OC(C)=O (stereo partly drawn)",
    "outcome": "inactive"
  },
  {
    "Molecule": "Cn1c(=O)c2c(ncn2C)n(C)c1=O",
    "outcome": "inactive"
  },
  {
    "Molecule": "COc1cc(/C=C/c2ccc(O)cc2)cc(OC)c1",
    "outcome": "inactive"
  },
  {
    "Molecule": "CC1Cc2cc(O)c(O)cc2C(c2ccc(O)cc2)C1C (stereo not drawn)",
    "outcome": "inactive"
  },
  {
    "Molecule": "C=CC(C)(C)c1cc2cc3c(cc2oc1=O)OC(C(C)(C)OC(C)=O)C3 (stereo not drawn)",
    "outcome": "inactive"
  }
]

---

Assay: cell survival after pyrene fatty acid photosensitization – ZR-82 cells, Analyticon library, screen 2, phospholipid biosynthesis inhibitor project, primary screen (AID 1347383);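 further: survival reflects blocked phospholipid synthesis cutting uptake of the phototoxic fatty acid; compound and fatty acid exposure 3 h then viability read next day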
Conditions: ZR-82 CHO cells, pyrene-fatty acid UV killing, CellTiter Blue; at 10 µM; peroxisome-deficient CHO-K1 variant; with DGAT-1, DGAT-2 and ACAT inhibitors
The source made the active and inactive calls.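 How the source made its calls: active means cell survival after UV exposure 2 SD above solvent-only control wells at 10 µM, confirmed on one or two repeats; inactive means the rest.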
Outcome codes: class 1 (active), class 0 (inactive)

[
  {
    "Compound": "CCC(C)CC(=O)OC1C(=O)C(CO)C(OC)C(OC(C)=O)C1C(C)C (stereo not given)",
    "Cat": "class 0"
  },
  {
    "Compound": "CCC1CN2CCc3cc(OC)c(OC)cc3C2CC1CC1NCCc2cc(OC)c(OC)cc21 (stereo not given)",
    "Cat": "class 0"
  },
  {
    "Compound": "OCCc1ccc(O)cc1",
    "Cat": "class 0"
  },
  {
    "Compound": "CC(=O)O[C@H]1C[C@@]2(C)[C@@H](CC[C@H]3[C@@]4(C)C=CC(=O)[C@@H](C)[C@@H]4[C@H](OC(C)=O)C(=O)[C@@]32C)/C1=C(\\CCC=C(C)C)C(=O)O",
    "Cat": "class 0"
  },
  {
    "Compound": "COc1cc(C2OC(c3ccc(O)c(OC)c3)C(C)C2C)ccc1O (stereo not given)",
    "Cat": "class 1"
  }
]
